Experiment Description: Test Example 6 pharmacokinetic study in beagles
Experimental Setup: male, beagle, dog, in vivo, iv, 0.5 mg/kg
Endpoint: Vd (L/kg)

| Compound | Endpoint | Val |
| --- | --- | --- |
| C=C1C[C@@H]2CC[C@@]34C[C@H]5O[C@H]6[C@@H](O3)[C@H]3O[C@H](CC[C@@H]3O[C@H]6[C@H]5O4)CC(=O)C[C@@H]3[C@@H](OC)[C@@H](C[C@@H](CN)OC)O[C@H]3C[C@H]3O[C@@H](CC[C@@H]1O2)C[C@@H](C)C3=C [Compound D-1] | Vd | 22 |

---

Experiment Description: Test Example 6 pharmacokinetic study in beagles
Experimental Setup: male, beagle, dog, in vivo, iv, 0.5 mg/kg

| Item Smiles | Unit Name | AUC(0-t) |
| --- | --- | --- |
| C=C1C[C@@H]2CC[C@@]34C[C@H]5O[C@H]6[C@@H](O3)[C@H]3O[C@H](CC[C@@H]3O[C@H]6[C@H]5O4)CC(=O)C[C@@H]3[C@@H](OC)[C@@H](C[C@@H](CN)OC)O[C@H]3C[C@H]3O[C@@H](CC[C@@H]1O2)C[C@@H](C)C3=C | ng·h/mL | 433 |

---

Experiment Description: Test Example 6 pharmacokinetic study in beagles
Experimental Setup: male, beagle, dog, in vivo, iv, 0.5 mg/kg

| Item Smiles | half-life (h) |
| --- | --- |
| C=C1C[C@@H]2CC[C@@]34C[C@H]5O[C@H]6[C@@H](O3)[C@H]3O[C@H](CC[C@@H]3O[C@H]6[C@H]5O4)CC(=O)C[C@@H]3[C@@H](OC)[C@@H](C[C@@H](CN)OC)O[C@H]3C[C@H]3O[C@@H](CC[C@@H]1O2)C[C@@H](C)C3=C | 29.3 |

---

Test system: A549
Experiment Description: Test Example 1 in vitro cytotoxic activity screening (CTG)
Assay type: cell-based, human
Experimental Setup: Homo sapiens; A549, CTG; read-out: IC50
The molecules listed here are annotated with their IC50.

| Item Smiles | Unit Name | IC50 |
| --- | --- | --- |
| C=C1C[C@@H]2CC[C@@]34C[C@H]5O[C@H]6[C@@H](O3)[C@H]3O[C@H](CC[C@@H]3O[C@H]6[C@H]5O4)CC(=O)C[C@@H]3[C@@H](OC)[C@@H](C[C@H](O)CNC(=O)[C@H](O)C4CC4)O[C@H]3C[C@H]3O[C@@H](CC[C@@H]1O2)C[C@@H](C)C3=C | nM | 3.16 |
| C=C1C[C@@H]2CC[C@]34C[C@@H]5O[C@H]6[C@@H](O3)[C@@H]3O[C@H](CC[C@@H]3O[C@@H]6[C@H]5O4)CC(=O)C[C@@H]3[C@H](OC)[C@@H](C[C@H](O)CNC(=O)CO)O[C@H]3C[C@H]3O[C@@H](CC[C@@H]1O2)C[C@H](C)C3=C | nM | 5.61 |
| C=C1C[C@@H]2CC[C@@]34C[C@H]5O[C@H]6[C@@H](O3)[C@H]3O[C@H](CC[C@@H]3O[C@H]6[C@H]5O4)CC(=O)C[C@@H]3[C@@H](OC)[C@@H](C[C@H](O)COC(=O)[C@H](O)C4CC4)O[C@H]3C[C@H]3O[C@@H](CC[C@@H]1O2)C[C@@H](C)C3=C | nM | 1.85 |
